Ref: ChEMBL document CHEMBL3433997

molecular target: Solute carrier family 2, facilitated glucose transporter member 1 (Homo sapiens) (UniProt P11166); experiment: ST_JUDE_LEISH: Cytotoxicity at 2uM final concentration against transgenic Leishmania Mexicana promastigotes LmGLUT1 that are glucose transport deficient and complemented with the human glucose transporter GLUT1. Activity is measured by DNA content using SYBR green in vitro; format: functional
Sequence (P11166 whole entry): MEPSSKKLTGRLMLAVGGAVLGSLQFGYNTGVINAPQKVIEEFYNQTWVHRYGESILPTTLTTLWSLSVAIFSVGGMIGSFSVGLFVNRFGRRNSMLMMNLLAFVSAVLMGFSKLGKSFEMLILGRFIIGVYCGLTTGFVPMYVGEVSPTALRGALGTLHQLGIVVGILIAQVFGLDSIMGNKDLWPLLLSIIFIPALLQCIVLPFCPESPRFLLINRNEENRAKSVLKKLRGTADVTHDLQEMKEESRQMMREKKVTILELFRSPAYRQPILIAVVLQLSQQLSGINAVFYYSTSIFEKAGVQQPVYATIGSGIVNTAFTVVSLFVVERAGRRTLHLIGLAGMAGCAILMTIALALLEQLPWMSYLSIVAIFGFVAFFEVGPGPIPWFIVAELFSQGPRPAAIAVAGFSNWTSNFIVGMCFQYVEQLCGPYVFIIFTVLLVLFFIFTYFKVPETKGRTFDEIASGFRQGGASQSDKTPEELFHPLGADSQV
Kindly supply the reported inhibition values for the records listed here.
Record the result as number plus unit.

Please review the following examples before continuing.
• CN(C(=O)c1snnc1-c1ccccc1)C1CCN(CCCCCNC(=O)/C=C/c2ccc(Cl)c(Cl)c2)CC1 = 3.47%
• CC(C)(C)c1ccccc1OCCCON1C(=N)N=C(N)NC1(C)C = 38%
• N#Cc1cccc(CNC(=O)c2cccc(Nc3ccnc4ccc(F)cc34)c2)c1 = -0.1%

# batch size: 5; output inhibition per entry
1. CC[C@H]1CN2CCc3c([nH]c4ccccc34)[C@@H]2C[C@@H]1CC1c2cc(OC)c(OC)cc2CCN1C (stereo not given in full)
2. CCN(CC)CCCC(C)Nc1ccnc2[nH]c3ccccc3c12 (stereo not given)
3. CC(=O)c1c[nH]c2ccc(/C=C/C(=O)NC3CCC(CCN4CCc5ccc(C#N)cc5CC4)CC3)cc12 (stereo not given)
4. CS(=O)(=O)Cc1ccc(Nc2nccc(-c3c(-c4cccc(NC(=O)C5CCCCC5)c4)nn4ncccc34)n2)cc1
5. COc1ccc2c(NCCc3ccccc3)cc(-c3ccccc3)nc2c1

9.81%
6.4%
19.5%
3.22%
9.93%

# batch size: 7; output inhibition per entry
1. Cc1ccccc1N1CCN(c2ccc(C(=O)Nc3ccccc3)cn2)CC1
2. C=Cc1cc(NC(=O)N2CCc3cc(OC)c(C(F)(F)F)cc32)cc(-c2cccnc2)c1
3. COc1ccc(CN2CCN(CC(=O)Nc3cc(Cl)ccc3-n3cncn3)CC2)cc1F
4. Cc1cccc2nc(-c3ccc(-c4ccc(NC(=O)NC5CC5c5ccccc5)cc4)cc3)[nH]c12 (stereo not given)
5. CCOC(=O)NC1=NC(C)(C)N(OCCCOc2cc(Cl)c(Cl)cc2Cl)C(NC(=O)OCC)=N1
6. O=C(/C=C/c1ccc(Cl)c(Cl)c1)NCCCCCN1CCC(NC(=O)c2ccc3ccccc3c2)CC1
7. O=C(c1cccs1)N1CCN(c2ccc([N+](=O)[O-])c(NC3CC3)c2)CC1

1. 9.19%
2. 4.52%
3. -1.01%
4. 0.9%
5. 2.08%
6. 0.51%
7. 1.35%

====

target: Glucose transporter (Leishmania mexicana) (UniProt O61059); assay: ST_JUDE_LEISH: Cytotoxicity at 2uM final concentration against transgenic Leishmania Mexicana promastigotes LmGT2 that are glucose transport deficient and complemented with the L. Mexicana glucose transporter 2. Activity is measured by DNA content using SYBR green in vitro; format: functional
Kindly supply the reported inhibition values for the records listed here.
One number for each entry, in %.

Please review the following examples before continuing.
- Cc1[nH]c(C)c(-c2ccc(-c3ccc(Cl)cc3)nc2)c(=O)c1Cl: -0.19
- COc1ccc(Oc2cnc(N)nc2N)c(C(C)C)c1: 2.01
- O=C(NC1CCN(Cc2ccc(O)cc2)CC1)c1ccc(Cl)c(Cl)c1: -3.12
- O=C(NCCN1CCOCC1)c1ccc(O)c(-c2cccc(C(F)(F)F)c2)c1: 2.43
- COc1ccc2ncc(F)c(CCN3CC(O)C(CNCc4ccc5c(c4)OCCO5)C3)c2n1 (centres undefined): -0.93
- CC(C)Oc1cc2c(cc1NS(=O)(=O)c1ccc(-c3ccc(Cl)s3)cc1F)CCN(C)CC2: 1.77
- Cc1cc(C(=O)Nc2ccc3c(c2)CCN3C2CCN(Cc3cc(F)cc(F)c3F)C2)no1 (centres undefined): 5.53
- COc1cc2nc(N3CCC(CNC(=O)/C=C/c4ccccc4F)CC3)nc(N)c2cc1OC: 4.27

Next:
Tell me reported inhibition for CCc1cn2c3c(cc(C(=O)N[C@@H](Cc4cccc(Cl)c4)[C@H](O)CNC4CCCCC4)cc13)N(C)S(=O)(=O)CC2 , tested with Glucose transporter (Leishmania mexicana) (UniProt O61059).
-0.36
